test: Leishmania major promastigote growth inhibition, primary screen (AID 1063); conditions: Leishmania major promastigotes, resazurin fluorescence viability; at 10 µM; active compounds read high;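 note: promastigotes grown with compound for 44 hours at 28 °C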
Screen size: about 200,000 compounds; about 18,000 (9%) were called active. The list comes from a sample in which actives are over-represented; it also holds close analogues and randomly drawn compounds.
Quantity Measured: inhibition (%)

# Molecule, Quantity Measured, Unit Abbrev, Test Result
rows = [
    ("COc1cccc(NC(=O)c2ccc3c(SCC(=O)O)c4c(nc3c2)CCCC4)c1", "inhibition", "%", 7.5),
    ("O=C(CN1CCOCC1)Nc1ccccc1", "inhibition", "%", -4.08),
    ("O=c1c2cc3c(=O)n(CC4CCCO4)c(=O)c3cc2c(=O)n1CC1CCCO1 (stereo unspecified)", "inhibition", "%", -5.65),
    ("CCOc1ccc(N2C(=O)CN(c3cccc4ccccc34)C2=S)cc1", "inhibition", "%", -2.38),
    ("COc1ccc(OCCCON2C(=O)c3ccccc3C2=O)cc1", "inhibition", "%", -2.83),
    ("CC(=O)NC1CC2CCCC(C1)N2CC(=O)Nc1ccccc1 (stereo unspecified)", "inhibition", "%", -0.85),
]

----------
test: Leishmania major promastigote growth inhibition, primary screen (AID 1063); details: Leishmania major promastigotes, resazurin fluorescence viability; at 10 µM; active compounds read high;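 note: promastigotes grown with compound for 44 hours at 28 °C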
Out of some 200,000 compounds screened, about 18,000 (9%) were called active. For the sample, actives were picked, then their nearest neighbours and some compounds at random.

# Compound, inhibition (%)
records = [
    ("COC(=O)c1c(NC(C)=O)sc(C(=O)Nc2ccccc2OC)c1C", -6.26),
    ("Cc1ccc(C(=O)COC(=O)CCCC(=O)NC2CCCCC2)cc1[N+](=O)[O-]", 33.2),
    ("Cc1ccc(/C([O-])=C(/C(=S)NCc2ccco2)[n+]2ccccc2)cc1[N+](=O)[O-]", -2.58),
    ("CCOC(=O)C1=C(CN2CCc3ccccc32)NC(=O)NC1c1cccc([N+](=O)[O-])c1 (configuration not stated)", 82.8),
    ("Cc1ccc(OCCCC(=O)NC(C)c2ccccc2)c(C)c1 (configuration not stated)", 11.7),
    ("COc1ccccc1CC(NC(C)=O)C(=O)NC1CCN(C(=O)Nc2ccccc2Cl)CC1 (configuration not stated)", -3.45),
    ("COc1ccc(CC(=O)NCc2nnc(SCC(=O)Nc3ncc(C)s3)n2C)cc1", -4.95),
    ("N#C/C(=C/c1ccc(N2CCCCC2)o1)C(=O)NCCc1c[nH]c2ccccc12", 0.13),
    ("N#C/C(=C\\c1ccc(N2CCOCC2)o1)C(=O)N1CCOCC1", 39.9),
    ("O=C(COc1ccccc1)Nc1ccc(N2CCN(C(=O)c3cccs3)CC2)cc1", -3.12),
    ("Cc1ccccc1N1CCN(CCCOc2ccc3c(C)cc(=O)oc3c2)CC1", 42.5),
    ("CCOC(=O)C1=C(CN2CCc3ccccc32)NC(=O)NC1c1ccc(Cl)cc1 (configuration not stated)", 55.5),
    ("N#C/C(=C/c1ccc(N2CCOCC2)o1)C(=O)N1CCOCC1", 54.5),
    ("Nc1nc(SCC(=O)N2CCN(S(=O)(=O)c3ccc(Cl)cc3)CC2)n[nH]1", -1.03),
    ("COc1cccc(CNC(=O)CCC2CCCN(C(=O)c3cc(C)[nH]n3)C2)c1 (configuration not stated)", -7.13),
    ("CC(=O)n1c(C=Nc2ccccc2)c(O)c2ccccc21", 4.07),
    ("Cc1cc(OCCCN2CCN(Cc3ccccc3)CC2)ccc1[N+](=O)[O-]", 94.3),
    ("O=C(COc1ccccc1[N+](=O)[O-])NC1CC1", -4.5),
    ("CCOC(=O)C1=C(CNC2CCCCC2)NC(=O)NC1c1cc(C)ccc1C (configuration not stated)", 47.4),
    ("O=C1NC(c2cccc(Cl)c2)Nc2ccccc21 (configuration not stated)", -1.93),
    ("COCCOC(=O)C1=C(C)NC(=O)NC1c1ccc(Cl)cc1 (configuration not stated)", -1.33),
    ("CCOC(=O)C1=C(CN2CCCCCC2)NC(=O)NC1c1cccc([N+](=O)[O-])c1 (configuration not stated)", 10.7),
]

----------
test: Leishmania major promastigote growth inhibition, primary screen (AID 1063); conditions: Leishmania major promastigotes, resazurin fluorescence viability; at 10 µM; active compounds read high;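 note: promastigotes grown with compound for 44 hours at 28 °C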
The whole screen tested about 200,000 compounds, of which about 18,000 (9%) were called active. Many of the other results were omitted from the sample, so actives are more common in it than they were.
We begin with a simple list: items and their reported inhibition.
Quantity Measured: inhibition (%)

# Compound, Test Result
data = [
    ("Oc1ccc(CNc2ccccc2O)cc1", 98.9),
    ("CCOC(=O)C(NC(C)=O)C(=O)Nc1ccc(OC)cc1 (stereo unspecified)", -2),
    ("Cc1ccc(NC(=O)Nc2nnc(-c3ccncc3)s2)cc1", 12.8),
    ("O=[N+]([O-])c1ccccc1NCc1ccc(Cl)cc1", -7.18),
    ("CCC1SC(CC)C(=O)N(CC(=O)NC2CCCCC2)C1=O (stereo unspecified)", -5.41),
    ("O=C(Nc1ccc(F)cc1)N1CCN(c2ccc(F)cc2)CC1", -0.19),
]

----------
assay: Leishmania major promastigote growth inhibition, primary screen (AID 1063); conditions: Leishmania major promastigotes, resazurin fluorescence viability; at 10 µM; active compounds read high;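 note: promastigotes grown with compound for 44 hours at 28 °C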
Out of some 200,000 compounds screened, about 18,000 (9%) were called active. For the sample, actives were picked, then their nearest neighbours and some compounds at random.

# Compound, Unit Abbrev, inhibition
data = [
    ("CC(C)N1CCC(NC(=O)Nc2ccccc2)CC1", "%", -2.35),
    ("CN(C)S(=O)(=O)c1cccc(NC(=S)N/N=C/C(=O)c2ccccc2)c1", "%", 2.84),
    ("COCCN(CCOC)S(=O)(=O)c1ccc(C(=O)Nc2nc3c(s2)CCc2ccccc2-3)cc1", "%", 78.1),
    ("COc1ccc(-c2[nH]ncc2CN(C)Cc2cc(C)[nH]n2)c(F)c1", "%", -3.28),
    ("O=C(Nc1ccc(N2C(=O)c3cccc4cccc(c34)C2=O)cc1)c1ccc(N2CCCCC2)c([N+](=O)[O-])c1", "%", 75),
    ("COc1ccccc1-n1c(=S)[nH]c2c(sc(=S)n2-c2ccc(C)cc2C)c1=O", "%", -6.57),
    ("CC(C)N(C)C(=O)CCc1nnc(CCc2c[nH]c3ccccc23)o1", "%", -3.38),
    ("COc1ccc2c(c1)C(c1cccs1)=NNC(c1cccnc1)=N2", "%", 23.7),
    ("O=C(COc1ccccc1F)NNC(=O)c1ccc(N2CCCCC2)c([N+](=O)[O-])c1", "%", -1.27),
    ("CC(=O)Nc1ccc(S(=O)(=O)N2CCN(C3CCCCCCC3)CC2)cc1", "%", -3.65),
    ("CC(C)N(Cc1ccccc1)C(=O)COC(=O)c1cnccn1", "%", -4.04),
    ("Cc1ccc(C(=O)N2CCCCCC2)cc1Br", "%", 1.69),
    ("O=C(NC1CCCCC1)C1CCCN(S(=O)(=O)c2cccs2)C1 (configuration not stated)", "%", -2.02),
    ("O=C(Nc1ccc(S(=O)(=O)N2CCCCC2)cc1)c1cnccn1", "%", -3.44),
    ("CCN(CCn1cccn1)C(=O)CC1C(=O)NCCN1Cc1cccc(OC)c1OC (configuration not stated)", "%", 5.31),
    ("CC1CCN(S(=O)(=O)c2ccc3ncn(CC(=O)N(C)C4CCCCC4)c(=O)c3c2)CC1", "%", -0.9),
    ("CC(NC(=O)c1ccc(N2CCNCC2)c([N+](=O)[O-])c1)C12CC3CC(CC(C3)C1)C2 (configuration not stated)", "%", 7.22),
    ("O=C(OCC(=O)c1cccs1)c1ccc([N+](=O)[O-])o1", "%", 13.5),
    ("Cc1cccc(NC(=O)c2cccc(C(F)(F)F)c2)c1", "%", 13.2),
    ("COc1ccc(-n2cc(CN(C)Cc3n[nH]c(=O)[nH]3)c(-c3cccc(F)c3)n2)cc1", "%", 2.9),
    ("Cc1ccc(S(=O)(=O)N2CCC(N3CCCCCC3)CC2)cc1", "%", 95.3),
    ("O=C(Nc1ccc2c(c1)OCO2)c1ccc(N2C(=O)c3ccccc3C2=O)cc1", "%", -0.72),
]

----------
We begin with a simple list: items and their reported inhibition.
experiment: Leishmania major promastigote growth inhibition, primary screen (AID 1063); settings: Leishmania major promastigotes, resazurin fluorescence viability; at 10 µM; active compounds read high;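 note: promastigotes grown with compound for 44 hours at 28 °C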
The whole screen tested about 200,000 compounds, of which about 18,000 (9%) were called active. This excerpt belongs to a sample that is enriched for actives.
Quantity Measured: inhibition

# Compound, Test Result
rows = [
    ("Cc1cc(NS(=O)(=O)c2ccc(NC(=O)c3cccc(OC(F)F)c3)cc2)nc(C)n1", "-1.79% (inactive)"),
    ("Cc1nn(C)c(C)c1Sc1ccccc1N", "-5.83% (inactive)"),
    ("CC(NC(=O)COC(=O)c1ccc2c(c1)OCO2)c1ccccc1 (stereo unspecified)", "-3.45% (inactive)"),
    ("Cc1cc(C(F)F)n2nc(C(=O)Nc3ccc(S(=O)(=O)NC45CC6CC(CC(C6)C4)C5)cc3)nc2n1", "99% (active)"),
    ("CCn1nccc1C(=O)Nc1ccc(S(=O)(=O)NC23CC4CC(CC(C4)C2)C3)cc1", "47.6% (inactive)"),
    ("Cc1ccc(NC(=O)CN(C)S(=O)(=O)c2cnc[nH]2)cc1C", "-1.54% (inactive)"),
    ("CCOC(=O)CN/C=C(\\C#N)c1ccc(F)cc1", "-7.97% (inactive)"),
    ("CCCNC(=S)N1CCCC(c2nc3ccccc3[nH]2)C1 (stereo unspecified)", "7.49% (inactive)"),
    ("CCN(CC)CCNC(=O)c1ccc(NS(=O)(=O)c2ccc3c(c2)OCCO3)cc1", "-8.8% (inactive)"),
    ("CN(CC(=O)NCCc1ccccc1)S(=O)(=O)c1cnc[nH]1", "57.7% (active)"),
    ("O=c1cnnc(Nc2ccccc2)[nH]1", "-6.97% (inactive)"),
]
